Biological target: α1 and β1 subunits of guanylate cyclase (sGC), expressed in Sf9 cells (Homo sapiens, UniProt Q02108+Q02153)
Construct: made in house; host or cells: Sf9 insect cells (baculovirus co-infection); high-speed supernatant used unpurified
Assay: Guanylate Cyclase Assay (formation of cyclic GMP from GTP)
Format: biochemical
Settings: compound at 100 μM with 1 μM sodium nitroprusside (SNP); normalized to 100 μM YC-1 (without SNP) as 100%
Each entry below carries its recorded Mean efficacy at 100 μM with 1 μM of SNP, [% of YC-1].

Known Mean efficacy at 100 μM with 1 μM of SNP, [% of YC-1] results, listed for orientation:
compound: O=C(NCCCn1ccnc1)c1ccccc1Oc1nn(Cc2ccccc2)c2ccccc12
result: 12 % of YC-1

compound: NC(=O)c1cccnc1Oc1nn(Cc2ccccc2)c2ccccc12
result: 23 % of YC-1

compound: O=C(NCCN1CCOCC1)c1ccc(Oc2nn(Cc3ccccc3)c3ccccc23)o1
result: 11 % of YC-1

compound: CN(C)CCNC(=O)c1ccccc1Oc1nn(Cc2ccccc2)c2ccccc12
result: 15 % of YC-1

compound: O=C(O)c1ccc(Cn2nc(OCc3ccccc3)c3ccccc32)o1
result: 27 % of YC-1

compound: O=[N+]([O-])c1ccc(Oc2nn(Cc3ccccc3F)c3ncccc23)nc1
result: 7 % of YC-1

compound: CCCC(CO)NC(=O)c1ccccc1Oc1nn(Cc2ccccc2)c2ccccc12 (stereo not shown)
result: 15 % of YC-1

compound: O=C(NC1CCC(O)CC1)c1ccccc1Oc1nn(Cc2ccccc2)c2ccccc12 (stereo not shown)
result: 12 % of YC-1

compound: OCc1ccc(Oc2nn(Cc3ccccc3)c3ccccc23)o1
result: 38 % of YC-1

compound: O=C(NCC(O)c1ccccc1)c1ccc(Oc2nn(Cc3ccccc3)c3ccccc23)o1 (stereo not shown)
result: 13 % of YC-1

Param item = CN(C)CCCNC(=O)c1ccccc1Oc1nn(Cc2ccccc2)c2ccccc12 ; retrieve measured Mean efficacy at 100 μM with 1 μM of SNP, [% of YC-1]. 10 % of YC-1

Param item = O=C(N[C@H]1Cc2ccccc2[C@H]1O)c1ccccc1Oc1nn(Cc2ccccc2)c2ccccc12 ; retrieve measured Mean efficacy at 100 μM with 1 μM of SNP, [% of YC-1]. 11 % of YC-1

Param item = CN(C)CCCNC(=O)c1ccc(Oc2nn(Cc3ccccc3)c3ccccc23)o1 ; retrieve measured Mean efficacy at 100 μM with 1 μM of SNP, [% of YC-1]. 65 % of YC-1

###

Target: α1 and β1 subunits of guanylate cyclase (sGC), expressed in Sf9 cells (Homo sapiens, UniProt Q02108+Q02153)
Construct: made in house; host or cells: Sf9 insect cells (baculovirus co-infection); high-speed supernatant used unpurified
Sequence (Q02108 1-690): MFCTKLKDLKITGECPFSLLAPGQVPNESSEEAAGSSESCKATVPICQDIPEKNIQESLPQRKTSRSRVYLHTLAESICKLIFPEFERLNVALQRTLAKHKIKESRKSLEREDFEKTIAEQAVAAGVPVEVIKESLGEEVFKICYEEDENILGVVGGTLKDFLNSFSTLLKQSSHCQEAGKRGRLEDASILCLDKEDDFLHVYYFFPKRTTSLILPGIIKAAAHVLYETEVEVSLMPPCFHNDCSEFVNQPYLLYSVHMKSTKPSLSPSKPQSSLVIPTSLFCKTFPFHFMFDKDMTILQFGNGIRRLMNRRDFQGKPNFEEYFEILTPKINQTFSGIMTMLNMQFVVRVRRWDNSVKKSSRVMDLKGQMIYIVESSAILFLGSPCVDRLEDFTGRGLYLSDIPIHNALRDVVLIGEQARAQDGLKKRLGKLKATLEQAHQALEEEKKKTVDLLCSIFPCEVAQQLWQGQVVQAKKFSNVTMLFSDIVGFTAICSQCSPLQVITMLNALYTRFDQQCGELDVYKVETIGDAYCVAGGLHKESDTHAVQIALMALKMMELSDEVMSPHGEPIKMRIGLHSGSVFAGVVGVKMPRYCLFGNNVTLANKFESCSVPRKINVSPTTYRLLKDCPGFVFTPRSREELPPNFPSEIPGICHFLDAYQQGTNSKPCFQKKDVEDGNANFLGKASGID
Sequence (Q02153 1-619): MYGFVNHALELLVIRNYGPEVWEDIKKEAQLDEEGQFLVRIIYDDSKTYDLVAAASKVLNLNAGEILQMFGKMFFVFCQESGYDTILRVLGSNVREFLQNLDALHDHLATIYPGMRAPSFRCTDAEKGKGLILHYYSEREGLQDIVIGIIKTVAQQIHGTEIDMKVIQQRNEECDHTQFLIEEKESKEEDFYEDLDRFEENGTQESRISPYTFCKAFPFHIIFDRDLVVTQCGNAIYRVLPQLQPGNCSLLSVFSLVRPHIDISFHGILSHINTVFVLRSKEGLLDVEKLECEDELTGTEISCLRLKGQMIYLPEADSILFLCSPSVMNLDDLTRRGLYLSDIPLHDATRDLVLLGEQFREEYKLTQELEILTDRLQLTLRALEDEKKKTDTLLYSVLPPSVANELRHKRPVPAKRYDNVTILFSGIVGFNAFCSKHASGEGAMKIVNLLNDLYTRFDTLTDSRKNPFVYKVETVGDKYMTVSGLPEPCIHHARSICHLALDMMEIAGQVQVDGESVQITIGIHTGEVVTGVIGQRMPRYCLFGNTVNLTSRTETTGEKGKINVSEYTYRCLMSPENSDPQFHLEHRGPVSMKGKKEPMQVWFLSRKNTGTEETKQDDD
Assay: Guanylate Cyclase Assay (formation of cyclic GMP from GTP)
Format: biochemical
Details: compound at 100 μM without SNP; normalized to activity of 100 μM YC-1 (without SNP) as 100%; read-out: Mean basal efficacy at 100 μM, [% of YC-1]
readout_kind: Emax at 100 µM (%)

Known Emax at 100 µM results, listed for orientation:
compound: O=C(O)c1ccccc1Oc1nn(Cc2ccccc2)c2ccccc12 [Example 15]
readout_kind: Emax at 100 µM
readout_units: %
numeric_result: 4
--
compound: O=C(N[C@H]1Cc2ccccc2[C@H]1O)c1ccccc1Oc1nn(Cc2ccccc2)c2ccccc12 [Example 20]
readout_kind: Emax at 100 µM
readout_units: %
numeric_result: 6
--
compound: O=C(NC1CCC(O)CC1)c1ccccc1Oc1nn(Cc2ccccc2)c2ccccc12 (stereo not drawn) [Example 19]
readout_kind: Emax at 100 µM
readout_units: %
numeric_result: 3

[1] FC(F)(F)c1cncc(Oc2nn(Cc3ccccc3)c3ccccc23)c1 [Example 13]
[2] O=C(NCCN1CCOCC1)c1ccc(Oc2nn(Cc3ccccc3)c3ccccc23)o1 [Example 10]
[3] CN(C)CCCNC(=O)c1ccccc1Oc1nn(Cc2ccccc2)c2ccccc12 [Example 18]
Put the entries in order of Emax at 100 µM, starting with the largest number. Provide your answer as the labels ordered per the instruction. 3, 1, 2
(3: 5%, 1: 3%, 2: 1%)

###

Biological target: α1 and β1 subunits of guanylate cyclase (sGC), expressed in Sf9 cells (Homo sapiens, UniProt Q02108+Q02153)
Construct: made in house; host or cells: Sf9 insect cells (baculovirus co-infection); high-speed supernatant used unpurified
Experiment: Guanylate Cyclase Assay (formation of cyclic GMP from GTP)
Type: biochemical
Conditions: compound at 100 μM without SNP; normalized to activity of 100 μM YC-1 (without SNP) as 100%; read-out: Mean basal efficacy at 100 μM, [% of YC-1]
readout_kind: Emax at 100 µM (%)

Known Emax at 100 µM results, listed for orientation:
molecule: Clc1ccc(NN=Cc2ccc(Oc3nn(Cc4ccccc4)c4ccccc34)o2)nn1
readout_kind: Emax at 100 µM
numeric_result: 0
--
molecule: OCc1cccc(Oc2nn(Cc3ccccc3)c3ccccc23)n1
readout_kind: Emax at 100 µM
numeric_result: 0
--
molecule: O=C(NCC(O)c1ccccc1)c1ccc(Oc2nn(Cc3ccccc3)c3ccccc23)o1 (stereo not drawn)
readout_kind: Emax at 100 µM
numeric_result: 0

[I] CCCC(CO)NC(=O)c1ccc(Oc2nn(Cc3ccccc3)c3ccccc23)o1 (stereo not drawn)
[II] O=C(O)c1ccc(Cn2nc(OCc3ccccc3)c3ccccc32)o1
[III] CC(CCCC(C)(C)O)NC(=O)c1ccc(Oc2nn(Cc3ccccc3)c3ccccc23)o1 (stereo not drawn)
[IV] c1ccc(Cn2nc(Oc3ncccn3)c3ccccc32)cc1
[V] OCc1ccc(Oc2nn(Cc3ccccc3)c3ccccc23)o1
Put the entries in order of Emax at 100 µM, starting with the largest number. Provide your answer as the labels ordered per the instruction. V, II, I, III, IV

###

Target: α1 and β1 subunits of guanylate cyclase (sGC), expressed in Sf9 cells (Homo sapiens, UniProt Q02108+Q02153)
Construct: made in house; host or cells: Sf9 insect cells (baculovirus co-infection); high-speed supernatant used unpurified
Experiment: Guanylate Cyclase Assay (formation of cyclic GMP from GTP)
Format: biochemical
Conditions: (activity at 100 μM with 1 μM SNP − activity at 100 μM)/(activity of SNP at 1 μM − basal activity of sGC)
readout_kind: Mean activation at 100 μM

Known Mean activation at 100 μM results, listed for orientation:
molecule: O=C(NCC(O)c1ccccc1)c1ccc(Oc2nn(Cc3ccccc3)c3ccccc23)o1 (stereo not drawn) [Example 9]
numeric_result: 1.6

molecule: O=C(NCC1CCCCC1O)c1ccccc1Oc1nn(Cc2ccccc2)c2ccccc12 (stereo not drawn) [Example 26]
numeric_result: 2.0

molecule: CCCC(CO)NC(=O)c1ccccc1Oc1nn(Cc2ccccc2)c2ccccc12 (stereo not drawn) [Example 21]
numeric_result: 1.9

[a] CN(C)CCCNC(=O)c1ccccc1Oc1nn(Cc2ccccc2)c2ccccc12 [Example 18]
[b] O=[N+]([O-])c1ccc(Oc2nn(Cc3ccccc3F)c3ncccc23)nc1 [Example 34]
[c] c1ccc(Cn2nc(Oc3ccccn3)c3ccccc32)cc1 [Example 11, 1-benzyl-3-(2-pyridinyloxy)-1H-indazole]
Put these in order: smallest Mean activation at 100 μM first, largest last. Provide your answer as the labels ordered per the instruction. b, a, c
(b: 1.0, a: 1.5, c: 2.8)

[a] C(=Cc1ccccc1)Cn1nc(OCc2ccccc2)c2ccccc21 [Example 27]
[b] c1ccc(Cn2nc(Oc3ncccn3)c3ccccc32)cc1 [Example 12]
// pick larger Mean activation at 100 μM from pair: a vs b Answer format: the label of the selected item. b

[A] NC(=O)c1cccnc1Oc1nn(Cc2ccccc2)c2ccccc12 [Example 14]
[B] OCc1ccc(-c2nn(Cc3ccccc3)c3ccccc23)o1 [YC-1, reference compound]
Returns: the label, A or B , whose recorded Mean activation at 100 μM is the lower number. Answer format: the label of the selected item. A
(A: 1.8, B: 2.7)

[I] Clc1ccc(NN=Cc2ccc(Oc3nn(Cc4ccccc4)c4ccccc34)o2)nn1 [Example 3]
[II] O=C(O)c1ccccc1Oc1nn(Cc2ccccc2)c2ccccc12 [Example 15]
// pick larger Mean activation at 100 μM from pair: I vs II Answer format: the label of the selected item. II
(II: 2.6, I: 1.7)

Hey, just so you know, these numbers are from patent US20040048866A1.
